The reported numbers originate from PubChem BioAssay (NCI).

# TGI annotations
# Tested on: CCRF-CEM leukemia
# method-summary: NCI tumour cell line growth inhibition, 48 h

> print(dat)
                                   compound  value.reported
1  N#CC1=C(O)NC(O)=C(C#N)C1c1ccc(C2C(C#N)=C(O)NC(O)=C2C#N)cc1        > 100 µM
2  O=C1CSC(c2cccc(Cl)c2)N1c1ccc(-c2ccc(-n3c(-c4ccccc4)nc4ccccc4c3=O)cc2)cc1 (stereo not given)        > 100 µM
3  COc1cc(OC)c2c(c1)OC(c1cccnc1)C(c1ccccc1)C2=O (stereo not given)        > 100 µM

Prompt: What does the data say about its TGI? Entry: CC(=O)c1ccc(NC(=O)COC(=O)c2cccc3c(=O)c4ccccc4[nH]c23)cc1
Response: > 100 µM

Prompt: Can you check CN(C)c1ccc(/C=N/S(=O)(=O)c2ccc(-n3c(-c4ccccc4)nc4c(Br)cc(Br)cc4c3=O)cc2)cc1 next?
Response: > 100 µM
